# TEST_SYSTEM: Recombinant IKKβ (Homo sapiens, UniProt O14920)
# Construct: purchased Millipore, Dundee, UK
# Sequence (O14920 1-756): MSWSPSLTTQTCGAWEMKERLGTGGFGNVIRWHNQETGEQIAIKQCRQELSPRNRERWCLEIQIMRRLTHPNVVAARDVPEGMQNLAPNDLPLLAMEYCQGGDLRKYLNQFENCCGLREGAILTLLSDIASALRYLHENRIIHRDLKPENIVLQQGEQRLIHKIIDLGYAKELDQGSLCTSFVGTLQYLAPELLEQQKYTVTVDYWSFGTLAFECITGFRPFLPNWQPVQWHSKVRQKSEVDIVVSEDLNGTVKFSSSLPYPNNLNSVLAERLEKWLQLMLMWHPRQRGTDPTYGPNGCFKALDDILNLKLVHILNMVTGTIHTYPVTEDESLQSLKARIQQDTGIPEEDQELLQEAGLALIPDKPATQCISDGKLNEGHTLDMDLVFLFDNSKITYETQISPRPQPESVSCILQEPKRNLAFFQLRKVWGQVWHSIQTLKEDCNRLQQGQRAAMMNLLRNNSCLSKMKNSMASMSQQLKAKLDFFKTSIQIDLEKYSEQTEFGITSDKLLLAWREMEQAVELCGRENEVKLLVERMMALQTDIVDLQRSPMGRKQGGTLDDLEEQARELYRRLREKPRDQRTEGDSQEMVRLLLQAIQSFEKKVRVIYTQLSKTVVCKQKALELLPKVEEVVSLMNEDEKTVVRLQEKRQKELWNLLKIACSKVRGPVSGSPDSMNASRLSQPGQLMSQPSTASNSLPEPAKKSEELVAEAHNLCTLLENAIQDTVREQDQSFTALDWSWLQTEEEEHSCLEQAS
# ASSAY_OVERVIEW: DELFIA IKKβ kinase assay (apparent Ki, Cheng-Prusoff)
# Assay type: biochemical
# TEST_PARAMETERS: DELFIA assay (first line of an example)
pKi: −log10 of the molar value.
OBSERVED_PROPERTY: pKi

Worked set:
Nc1n[nH]c2ccc(-c3ccnc4[nH]c(CCCN5CCCCC5)cc34)cc12	6.29
Nc1n[nH]c2c(C#CC3CCCC3)cc(-c3ccnc4[nH]ccc34)cc12	6.34
CC(C)(C)C#Cc1cc(-c2ccnc3[nH]c(CCN4CCOCC4)cc23)cc2c(N)n[nH]c12	6.44

a. Nc1n[nH]c2ccc(-c3ccnc4[nH]c(C(=O)NCCc5ccccc5)cc34)cc12
b. Nc1n[nH]c2c(C#CCCCCOc3ccccc3)cc(-c3ccnc4[nH]ccc34)cc12
c. Nc1n[nH]c2ccc(-c3ccnc4[nH]c(C(=O)N5CCCC5)cc34)cc12
// query List by increasing pKi. Returns: the labels arranged in the requested order.
// result b, c, a
(b: 5.90, c: 6.57, a: 7.05)
